Tested on: SF-295
Test: NCI tumour cell line growth inhibition, 48 h
The source made the active and inactive calls. No stated cut-off is given here; in the data, active = GI50 up to about 1.1 µM and inactive = higher.
parameter measured: GI50

{"compound": "OC(c1ccc(C(F)(F)F)cc1)C(F)(F)c1nc2ccccc2o1 (configuration not stated)", "tested system": "SF-295", "GI50": "> 100 µM (inactive)"}
{"compound": "Cc1cc2nc3c(C#N)c4c(c(Nc5ccc(F)cc5)n3c2cc1C)CCC4", "tested system": "SF-295", "GI50": "> 100 µM (inactive)"}

What does the data say about its GI50? Entry: `COc1ccc(/C=C2\C=Cc3ccccc32)cc1OC`
> 100 µM (inactive)

What does the data say about its GI50? Entry: `CCOC(=O)NN(C(=O)OCC)C(=C(C1=CCCCC1)N1CCOCC1)N(NC(=O)OCC)C(=O)OCC`
> 100 µM (inactive)

What does the data say about its GI50? Entry: `Cc1c(C(=O)/C=C/c2ccc([N+](=O)[O-])cc2)[n+]([O-])c2ccccc2[n+]1[O-]`
> 100 µM (inactive)
